MEASURED ON: sGC α1/β1 heterodimer (Homo sapiens, UniProt Q02108+Q02153)
Construct: expressed in transfected cells; host or cells: CHO-K1 (clone #7, CHO-K1/sGC)
Sequence (Q02108 1-690): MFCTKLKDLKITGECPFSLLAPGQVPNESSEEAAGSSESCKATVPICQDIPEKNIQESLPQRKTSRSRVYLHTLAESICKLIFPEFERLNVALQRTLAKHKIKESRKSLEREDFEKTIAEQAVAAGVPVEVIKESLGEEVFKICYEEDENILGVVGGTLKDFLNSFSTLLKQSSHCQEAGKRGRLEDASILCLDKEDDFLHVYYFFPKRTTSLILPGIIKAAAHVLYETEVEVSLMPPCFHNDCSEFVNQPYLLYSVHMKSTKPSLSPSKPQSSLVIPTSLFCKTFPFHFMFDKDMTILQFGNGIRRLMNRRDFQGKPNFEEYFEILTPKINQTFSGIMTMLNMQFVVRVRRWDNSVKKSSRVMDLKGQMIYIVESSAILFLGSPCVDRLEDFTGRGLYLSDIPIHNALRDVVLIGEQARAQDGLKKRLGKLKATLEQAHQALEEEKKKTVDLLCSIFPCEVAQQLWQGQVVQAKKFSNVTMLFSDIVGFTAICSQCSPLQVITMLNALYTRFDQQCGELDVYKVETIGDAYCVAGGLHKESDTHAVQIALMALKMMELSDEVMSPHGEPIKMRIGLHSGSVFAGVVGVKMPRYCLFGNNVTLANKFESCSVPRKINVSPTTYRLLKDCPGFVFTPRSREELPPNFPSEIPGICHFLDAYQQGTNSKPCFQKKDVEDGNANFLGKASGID
Sequence (Q02153 1-619): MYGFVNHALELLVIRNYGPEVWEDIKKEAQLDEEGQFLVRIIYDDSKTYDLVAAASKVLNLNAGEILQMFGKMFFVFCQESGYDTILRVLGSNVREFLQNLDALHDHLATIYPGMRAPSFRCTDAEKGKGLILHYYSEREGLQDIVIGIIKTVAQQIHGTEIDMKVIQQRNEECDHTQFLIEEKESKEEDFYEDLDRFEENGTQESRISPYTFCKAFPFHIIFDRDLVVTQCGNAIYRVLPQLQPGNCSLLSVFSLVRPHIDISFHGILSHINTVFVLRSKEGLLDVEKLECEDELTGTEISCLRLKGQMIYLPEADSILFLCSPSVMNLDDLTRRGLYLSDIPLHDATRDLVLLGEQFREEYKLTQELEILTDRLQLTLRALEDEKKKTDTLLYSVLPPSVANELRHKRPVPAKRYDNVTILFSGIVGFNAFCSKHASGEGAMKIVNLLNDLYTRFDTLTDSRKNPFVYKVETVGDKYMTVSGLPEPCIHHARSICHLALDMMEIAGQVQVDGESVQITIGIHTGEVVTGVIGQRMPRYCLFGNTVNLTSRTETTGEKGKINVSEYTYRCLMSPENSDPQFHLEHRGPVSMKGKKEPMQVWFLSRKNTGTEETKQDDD
ASSAY METHOD TEXT: Cell-based sGC functional assay (CASA assay): cGMP generation in CHO-K1/sGC cells, HTRF detection
MEASUREMENT PARAMETERS: inflection point (IP) of cGMP generation in CHO-K1/sGC cells, 4P fit; activity expressed as percentage of Compound A
pEC50: −log10 of the molar value.
The threshold is inclusive: pEC50 of exactly 7 counts as 1.0; values below receive 0.0.

| COMPOUND | MEASURED ON | ANSWER LABEL |
| --- | --- | --- |
| CCC1(C2CC2)C(=O)Nc2nc(-c3cn4ccnc4c(CCC(F)(F)C(F)(F)F)n3)nc(N)c21 (stereo not drawn) [Example 86B] | sGC α1/β1 heterodimer (Homo sapiens, UniProt Q02108+Q02153) | 0.0 |
| CC1(c2ccc(F)cn2)C(=O)Nc2nc(-c3cn4ccnc4c(CCC(F)(F)F)n3)nc(N)c21 (stereo not drawn) [Example 202B] | sGC α1/β1 heterodimer (Homo sapiens, UniProt Q02108+Q02153) | 0.0 |
| CC1(C)C(=O)Nc2nc(-c3cn4ccnc4c(Cc4cccc(F)c4)n3)nc(N)c21 [Example 71] | sGC α1/β1 heterodimer (Homo sapiens, UniProt Q02108+Q02153) | 1.0 |
| CCC1(c2ccc(F)cc2)C(=O)Nc2nc(-c3cn4ccnc4c(CCC(F)(F)C(F)(F)F)n3)nc(N)c21 (stereo not drawn) [Example 239A] | sGC α1/β1 heterodimer (Homo sapiens, UniProt Q02108+Q02153) | 1.0 |
